# study-target: T1, IL-36R naturally expressed on OVCAR8 cells and on normal human epidermal keratinocytes (NHK cells) (human, UniProt Q9HB29 20-575)
# T1 sequence (looked up): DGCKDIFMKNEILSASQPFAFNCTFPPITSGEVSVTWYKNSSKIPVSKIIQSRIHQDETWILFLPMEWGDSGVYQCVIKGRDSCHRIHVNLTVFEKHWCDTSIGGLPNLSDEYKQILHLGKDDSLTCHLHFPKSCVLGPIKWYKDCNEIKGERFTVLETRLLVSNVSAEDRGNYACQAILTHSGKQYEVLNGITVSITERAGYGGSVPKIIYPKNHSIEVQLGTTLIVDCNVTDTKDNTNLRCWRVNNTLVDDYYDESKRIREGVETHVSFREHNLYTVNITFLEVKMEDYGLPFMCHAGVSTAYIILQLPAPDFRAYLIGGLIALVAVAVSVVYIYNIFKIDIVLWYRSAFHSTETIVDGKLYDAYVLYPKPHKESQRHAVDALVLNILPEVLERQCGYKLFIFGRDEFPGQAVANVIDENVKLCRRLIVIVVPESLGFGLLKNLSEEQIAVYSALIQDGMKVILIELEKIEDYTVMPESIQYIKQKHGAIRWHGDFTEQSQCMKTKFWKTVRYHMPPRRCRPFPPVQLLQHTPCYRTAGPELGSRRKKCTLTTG
# assay-details: cell-based or functional assay
IC50 (M); hIL36γ; IL-8 production listing for selected binders.
Express the result in M but write the number alone.

The cases that follow already have their IC50 (M); hIL36γ; IL-8 production on record.
>  <binder>
hz84C4-1.5 (antibody, human IgG4 S228P, kappa, V domains shown, Humanized, human IgG4 / kappa) VH: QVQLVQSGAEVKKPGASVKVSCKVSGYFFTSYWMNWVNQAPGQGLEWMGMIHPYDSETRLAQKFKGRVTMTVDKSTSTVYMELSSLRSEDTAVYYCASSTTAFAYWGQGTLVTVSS VL: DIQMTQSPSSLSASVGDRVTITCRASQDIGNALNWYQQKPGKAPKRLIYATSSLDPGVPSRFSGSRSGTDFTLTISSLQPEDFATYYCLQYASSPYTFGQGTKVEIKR

>  <unit-spec>
M

>  <result-value>
5.29e-12

$$$$
>  <binder>
hz84C4-1.2 (antibody, human IgG4 S228P, kappa, V domains shown, Humanized, human IgG4 / kappa) VH: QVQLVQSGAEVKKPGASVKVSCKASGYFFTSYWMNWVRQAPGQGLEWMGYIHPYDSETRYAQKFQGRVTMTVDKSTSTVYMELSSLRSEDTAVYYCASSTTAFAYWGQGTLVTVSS VL: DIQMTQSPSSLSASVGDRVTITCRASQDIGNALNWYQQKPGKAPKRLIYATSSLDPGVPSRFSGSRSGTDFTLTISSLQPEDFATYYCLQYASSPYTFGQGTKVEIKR

>  <unit-spec>
M

>  <result-value>
8.99e-12

$$$$
>  <binder>
hz84C4-2.5 (antibody, human IgG4 S228P, kappa, V domains shown, Humanized, human IgG4 / kappa) VH: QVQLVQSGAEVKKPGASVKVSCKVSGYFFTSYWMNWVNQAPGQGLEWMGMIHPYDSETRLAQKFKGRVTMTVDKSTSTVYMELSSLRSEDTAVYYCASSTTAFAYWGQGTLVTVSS VL: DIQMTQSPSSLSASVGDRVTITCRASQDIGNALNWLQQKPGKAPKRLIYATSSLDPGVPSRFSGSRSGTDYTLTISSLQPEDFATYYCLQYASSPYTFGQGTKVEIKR

>  <unit-spec>
M

>  <result-value>
6.62e-12

$$$$

// query IC50 (M); hIL36γ; IL-8 production value for entry hz84C4-2.1 (antibody, human IgG4 S228P, kappa, V domains shown, Humanized, human IgG4 / kappa) VH: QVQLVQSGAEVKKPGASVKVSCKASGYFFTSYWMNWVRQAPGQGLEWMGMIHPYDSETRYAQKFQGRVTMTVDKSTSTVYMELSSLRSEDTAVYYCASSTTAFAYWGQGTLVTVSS VL: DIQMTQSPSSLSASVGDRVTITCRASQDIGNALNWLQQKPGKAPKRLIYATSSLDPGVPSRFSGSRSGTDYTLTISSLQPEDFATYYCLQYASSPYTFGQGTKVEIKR
6.45e-12
